The reported numbers originate from paper PMC6804443.

Reported values of inhibition at 1000 μmol/L for individual entries
molecular target: OAT1 (Homo sapiens, UniProt Q4U2R8); assay: OAT1 inhibition by antibiotics, transfected HEK293 cells, tanshinol as substrate; conditions: human
Sequence (Q4U2R8 whole entry): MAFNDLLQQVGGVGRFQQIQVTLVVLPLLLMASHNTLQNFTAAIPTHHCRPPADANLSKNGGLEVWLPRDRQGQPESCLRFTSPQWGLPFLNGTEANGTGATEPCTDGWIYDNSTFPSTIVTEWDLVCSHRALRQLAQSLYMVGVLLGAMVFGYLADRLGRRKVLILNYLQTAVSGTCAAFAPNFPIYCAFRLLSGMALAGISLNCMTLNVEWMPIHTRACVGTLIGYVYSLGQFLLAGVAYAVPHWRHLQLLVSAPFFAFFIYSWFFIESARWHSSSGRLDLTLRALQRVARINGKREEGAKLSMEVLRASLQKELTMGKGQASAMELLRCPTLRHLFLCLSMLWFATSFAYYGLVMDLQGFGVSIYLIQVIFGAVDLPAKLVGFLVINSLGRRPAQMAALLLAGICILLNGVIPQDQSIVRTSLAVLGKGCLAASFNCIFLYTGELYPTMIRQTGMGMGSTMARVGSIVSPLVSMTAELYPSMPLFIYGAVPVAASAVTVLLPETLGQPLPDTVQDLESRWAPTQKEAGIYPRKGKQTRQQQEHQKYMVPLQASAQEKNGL

Would you please look over these solved cases?
Quote inhibition at 1000 μmol/L reported for "C[C@@H](c1ncncc1F)[C@](O)(Cn1cncn1)c1ccc(F)cc1F" please. 63 to 88%

Respond only with inhibition at 1000 μmol/L recorded for "Cc1onc(-c2ccccc2)c1C(=O)N[C@@H]1C(=O)N2[C@@H]1SC(C)(C)[C@@H]2C(=O)O" 63 to 88%

Others:
Give the reported inhibition at 1000 μmol/L for this molecule. "Cc1onc(-c2c(F)cccc2Cl)c1C(=O)N[C@@H]1C(=O)N2[C@@H]1SC(C)(C)[C@@H]2C(=O)O" ≥ 90%

====

# Inhibition of OAT1 listing for each entry below
biological target: OAT1 (Homo sapiens, UniProt Q4U2R8); experiment: OAT1 inhibition by XueBiJing compounds, transfected HEK293 cells [PAH]; assay type: in vitro ADME; conditions: 100 μmol/L

Example entries begin here.
Return reported Inhibition of OAT1. Input compound: COc1cc(CC(O)C(=O)O)ccc1O (stereo not shown) > 50%

Let me know recorded Inhibition of OAT1 for CCCCC1(O)OC(=O)C2=C1CCC=C2 (stereo not shown) [X7, senkyunolide G] , thanks. > 50%

Output Inhibition of OAT1 of "COc1cc(/C=C/C(=O)O)ccc1O" > 50%

More entries:
Tell us which Inhibition of OAT1 value is on record for O=C(O)C(O)Cc1ccc(O)c(O)c1 (stereo not shown) > 50%

====

molecular target: OAT2 (Homo sapiens); assay: OAT2 inhibition by antibiotics, transfected HEK293 cells, tanshinol as substrate; type: in vitro ADME
Sequence (Q9Y694 1-546 isoform Q9Y694-2): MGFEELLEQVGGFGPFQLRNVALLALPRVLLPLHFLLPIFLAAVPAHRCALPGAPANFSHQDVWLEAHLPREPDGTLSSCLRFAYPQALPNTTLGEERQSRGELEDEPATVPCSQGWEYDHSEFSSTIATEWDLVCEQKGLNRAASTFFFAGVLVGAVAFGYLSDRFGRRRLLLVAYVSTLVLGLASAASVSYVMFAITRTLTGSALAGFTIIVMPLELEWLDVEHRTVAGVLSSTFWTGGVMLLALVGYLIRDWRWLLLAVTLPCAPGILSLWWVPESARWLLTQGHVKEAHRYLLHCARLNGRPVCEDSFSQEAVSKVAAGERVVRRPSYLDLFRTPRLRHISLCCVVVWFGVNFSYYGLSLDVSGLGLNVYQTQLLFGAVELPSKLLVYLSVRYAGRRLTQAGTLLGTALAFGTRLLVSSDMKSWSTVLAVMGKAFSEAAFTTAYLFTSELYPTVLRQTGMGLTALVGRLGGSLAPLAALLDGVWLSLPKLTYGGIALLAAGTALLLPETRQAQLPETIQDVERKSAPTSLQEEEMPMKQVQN
Starred links: 1 amine or outer side, 2 acyl side, 3 side chain; linkers in the order of their positions; H or OH if unused. Positions of bridges follow the written chain, without caps; N, C: chain ends. Non-standard residues stand in square brackets, D forms with d. Residues, ends and D or L forms follow the SMILES beside them. *: point of attachment. hTyr(3S-OH,4S-OH,3'-OSO3H) = N[C@H](C(=O)O)[C@H](O)[C@@H](O)c1ccc(O)c(OS(=O)(=O)O)c1; Orn(4R-OH,5R-OH) = O=C([C@H](C[C@@H](O)[C@@H](O)N[*:3])N[*:1])[*:2]; Pro(3S-OH,4S-Me) = C[C@H]1CN[C@H](C(=O)O)[C@H]1O; X1 = CCCCCOc1ccc(-c2cc(-c3ccc(C(=O)*)cc3)no2)cc1; Gln(3R-OH) = NC(=O)C[C@@H](O)[C@H](N)C(=O)O; Hyp = O=C(O)[C@@H]1C[C@@H](O)CN1
READOUT_TYPE: IC50 (µM)

Entry CCCCCOc1ccc(-c2cc(-c3ccc(C(=O)N[C@H]4C[C@@H](O)[C@@H](O)NC(=O)[C@@H]5[C@@H](O)[C@@H](C)CN5C(=O)[C@H]([C@H](O)CC(N)=O)NC(=O)[C@H]([C@H](O)[C@@H](O)c5ccc(O)c(OS(=O)(=O)O)c5)NC(=O)[C@@H]5C[C@@H](O)CN5C(=O)[C@H]([C@@H](C)O)NC4=O)cc3)no2)cc1 [A40, micafungin] (X1-[Orn(4R-OH,5R-OH)]T[Hyp][hTyr(3S-OH,4S-OH,3'-OSO3H)][Gln(3R-OH)][Pro(3S-OH,4S-Me)]; lactam 1-C) needs its IC50 filled in; supply it. 26

(A) Cc1onc(-c2ccccc2)c1C(=O)N[C@@H]1C(=O)N2[C@@H]1SC(C)(C)[C@@H]2C(=O)O
(B) Cc1onc(-c2c(F)cccc2Cl)c1C(=O)N[C@@H]1C(=O)N2[C@@H]1SC(C)(C)[C@@H]2C(=O)O
(C) CCN1CCN(C(=O)N[C@@H](C(=O)N[C@@H]2C(=O)N3[C@@H]2SC(C)(C)[C@@H]3C(=O)O)c2ccccc2)C(=O)C1=O
(D) C[C@H]1COc2c(N3CCN(C)CC3)c(F)cc3c(=O)c(C(=O)O)cn1c23
Arrange items by their IC50 values in increasing order. I'd appreciate it if you listed the labels in the requested order. D, A, B, C
